Source listed as the Biogen ADME set (Fang et al. 2023).

Documented log10 intrinsic clearance, rat liver microsomes across a set of compounds
Reported endpoint: log10 intrinsic clearance, rat liver microsomes (log10 of the value in mL/min/kg)

• CCCNC(=O)c1ccc(OC2CCN(C)CC2)cc1 = 1.55
• CN(C)S(=O)(=O)Nc1ccc(-n2ncc3ccccc32)cc1 = 2.98
• Cn1nc(N)c2ccc(Br)cc21 = 1.98
• CCC(C)(C)NC(=O)C1(Cc2ccc(-c3cc(F)ccc3OC)cc2)CCOCC1 = 3.01
• CNc1nc(N2CCCCC2)nc(N2CCCCC2)n1 = 2.90
• Cc1cc(C(=O)NCCC2=CSC3=NCCCN23)c2cccc(C)c2n1 = 2.46
• CCC(=O)N1CCN(c2ccc(Cl)cc2NC(=O)COc2ccccc2)CC1 = 3.26
• Cc1cc(Oc2ncccn2)ccc1NC(=O)c1c(C)oc(C)c1C = 2.09
• CC(C)(C)Sc1c(CC(C)(C)C(=O)O)n(Cc2ccc(Cl)cc2)c2ccc(OCc3ccc4ccccc4n3)cc12 = 2.15
• Cc1cccc(-n2c(S)nnc2CNc2ccc(F)cc2)c1 = 2.27

====

Documented log10 aqueous solubility across a set of molecules
- Run conditions: pH 6.8
Reported endpoint: log10 aqueous solubility (log10 of the value in µg/mL)

• O[C@@H]1CO[C@H]2C[C@@H]1Nc1c(-c3ccccc3)cccc12 = 1.23
• COc1ccc(NC(=O)CN2CCC(c3cc(-c4cnc(N)nc4)cc(C)n3)CC2)cc1 = 1.63
• CC(C)(C)NC(=O)c1cnc(-c2ccc(Cl)s2)s1 = 0.04
• Cc1nccc(-c2ccc(-c3noc(CN4CCOCC4)n3)cc2)n1 = 1.79
• CCCC(=O)Nc1ccc(-n2cccn2)nc1 = 1.66
• CC(Sc1nc2c(cnn2-c2ccccc2)c(=O)[nH]1)C(N)=O (stereo not drawn) = 0.33
• N#Cc1ccc(-c2csc(CCN3CCCC3=O)n2)cc1 = 1.40
• O=c1n(CCc2ccncc2)nnn1-c1ccccc1 = 1.36
• CC(C)c1nccn1-c1cccc([C@@H]2CCCN2C(=O)CCc2ccccc2)n1 = 1.71
• CNC(=O)N1CCc2nc3ccc(Cl)cn3c(=O)c2C1 = 1.70
• CC1(C)COCCN1Cc1cnn(-c2ccccc2)n1 = 1.17
• O=C(NCC1CC1)c1cncn1-c1ccc(F)cc1 = 1.72
• CC(C)n1nccc1-c1ncccc1COc1cccc(O)c1C=O = 1.58
• CCCOc1ccccc1C(=O)N1CC(Oc2cccc(OC)c2)C1 = 1.63
• CC(=O)Nc1ccc2nc(N3CCOCC3)sc2c1 = 1.64
• COc1ccccc1C(=O)Nc1cccc(-c2ccnc(C)n2)c1 = 1.67
• N#CCCN(C(=O)c1cccs1)C12CC3CC(CC(C3)C1)C2 = 0.86
• N=C1/C(=C\c2ccco2)C(=O)N=C2Sc3ccccc3N12 = -0.14
• C=CCNC(=O)C1(Cc2ccc(-c3ccccc3)cc2)CCN(C(=O)c2cccnc2)CC1 = 0.60
• C#CCNC(=O)Cc1coc2cc(OC)ccc12 = 1.75
• c1ccc(Cc2n[nH]c(CSc3ccccc3)n2)cc1 = 1.23
• C[C@H](C(=O)Nc1nc2ccccc2[nH]1)N1Cc2ccccc2C1=O = 1.42
• NCC(=O)Nc1ccc2[nH]c(=O)[nH]c2c1 = 2.02
• O=C(c1ccccc1F)N1CCC[C@@H]1Cn1nnn(-c2cccs2)c1=O = 1.52
• COc1cc(CN2CCC(c3ccnc(C)n3)CC2)ccc1F = 1.85
• CCN1CCC(Nc2ncnc3c2cnn3C)CC1 = 1.51
• CNC(=O)Cn1ccc2cc(OC)ccc21 = 1.60
• COc1ccc(S(=O)(=O)CCC(=O)Nc2ccc3c(c2)N(C)C(=O)CO3)cc1 = 1.79
• Cc1nc(NCc2ccc(F)c(Cl)c2)n(C)n1 = 1.64
• COc1cc(C(=O)O)c(N)c(OC)c1OC = 1.73
• COc1cc(CCNC(=O)c2nc3cccc(C)n3c2F)cc(OC)c1 = 1.60
• CCn1nnc2cc(C(=O)Nc3cccc(C#N)c3)ccc21 = 0.00
• COCCS(=O)(=O)N1CCC2(Cc3ccccc3C2)C1 = 1.73
• Cc1cc(Oc2ncccn2)ccc1NC(=O)c1c(C)oc(C)c1C = 1.74
• Cn1ccc2c(NC(=O)N3CCCN(C(=O)Oc4ccccc4)CC3)cccc21 = 1.86
• O=C(C1CCCN(C(=O)N2CCCC2)C1)N1CCc2ccccc2C1 (stereo not drawn) = 1.76
• Cc1ccc(-c2nnc(SCCn3cccn3)[nH]2)cc1 = 1.34
• C#CCN1CCN(Cc2nc(O)cc(C(F)(F)F)n2)CC1 = 1.63
• O=C(NC1CCCCC1)N1CCc2nc3ccccn3c(=O)c2C1 = 1.70
• O=C(c1ccc2c(c1)OCO2)N1CCC(c2n[nH]c(C3CC3)n2)CC1 = 1.43
• CC(=O)NC1(C(=O)N2CCCN(c3cccnn3)CC2)CCCCC1 = 1.68
• COc1ccc(OC)c(-c2cc(C(=O)N3CCCN(C(C)=O)CC3)no2)c1 = 1.78
• CC(C)N1CC[C@H](c2nnc(-c3cncn3C)o2)C1 = 1.59
• FC(F)(F)c1ccc(Nc2nc3cc(Oc4ccnc(-c5ncc(C(F)(F)F)[nH]5)c4)ccc3[nH]2)cc1 = -0.46
• COc1ccc(C(=O)N(C)Cc2nccn2C)c(F)c1 = 1.72
• CC1CCC(NC(=O)c2oc3ccccc3c2CS(C)=O)CC1 (stereo not drawn) = 1.84
• CCc1ccccc1NC(=O)c1cc(C)nc2onc(C)c12 = 1.12
• COc1cccc(NC(=O)[C@H]2CCCN(S(=O)(=O)c3ccc(C)cc3)C2)c1 = 1.00
